Assayed Target: T1, Recombinant human MMR (R&D systems) (human, UniProt P22897 19-1383)
T1 construct: Antigen of the PE-ELISA and the SPR; also called hMMR; recombinant hMMR
T1 sequence: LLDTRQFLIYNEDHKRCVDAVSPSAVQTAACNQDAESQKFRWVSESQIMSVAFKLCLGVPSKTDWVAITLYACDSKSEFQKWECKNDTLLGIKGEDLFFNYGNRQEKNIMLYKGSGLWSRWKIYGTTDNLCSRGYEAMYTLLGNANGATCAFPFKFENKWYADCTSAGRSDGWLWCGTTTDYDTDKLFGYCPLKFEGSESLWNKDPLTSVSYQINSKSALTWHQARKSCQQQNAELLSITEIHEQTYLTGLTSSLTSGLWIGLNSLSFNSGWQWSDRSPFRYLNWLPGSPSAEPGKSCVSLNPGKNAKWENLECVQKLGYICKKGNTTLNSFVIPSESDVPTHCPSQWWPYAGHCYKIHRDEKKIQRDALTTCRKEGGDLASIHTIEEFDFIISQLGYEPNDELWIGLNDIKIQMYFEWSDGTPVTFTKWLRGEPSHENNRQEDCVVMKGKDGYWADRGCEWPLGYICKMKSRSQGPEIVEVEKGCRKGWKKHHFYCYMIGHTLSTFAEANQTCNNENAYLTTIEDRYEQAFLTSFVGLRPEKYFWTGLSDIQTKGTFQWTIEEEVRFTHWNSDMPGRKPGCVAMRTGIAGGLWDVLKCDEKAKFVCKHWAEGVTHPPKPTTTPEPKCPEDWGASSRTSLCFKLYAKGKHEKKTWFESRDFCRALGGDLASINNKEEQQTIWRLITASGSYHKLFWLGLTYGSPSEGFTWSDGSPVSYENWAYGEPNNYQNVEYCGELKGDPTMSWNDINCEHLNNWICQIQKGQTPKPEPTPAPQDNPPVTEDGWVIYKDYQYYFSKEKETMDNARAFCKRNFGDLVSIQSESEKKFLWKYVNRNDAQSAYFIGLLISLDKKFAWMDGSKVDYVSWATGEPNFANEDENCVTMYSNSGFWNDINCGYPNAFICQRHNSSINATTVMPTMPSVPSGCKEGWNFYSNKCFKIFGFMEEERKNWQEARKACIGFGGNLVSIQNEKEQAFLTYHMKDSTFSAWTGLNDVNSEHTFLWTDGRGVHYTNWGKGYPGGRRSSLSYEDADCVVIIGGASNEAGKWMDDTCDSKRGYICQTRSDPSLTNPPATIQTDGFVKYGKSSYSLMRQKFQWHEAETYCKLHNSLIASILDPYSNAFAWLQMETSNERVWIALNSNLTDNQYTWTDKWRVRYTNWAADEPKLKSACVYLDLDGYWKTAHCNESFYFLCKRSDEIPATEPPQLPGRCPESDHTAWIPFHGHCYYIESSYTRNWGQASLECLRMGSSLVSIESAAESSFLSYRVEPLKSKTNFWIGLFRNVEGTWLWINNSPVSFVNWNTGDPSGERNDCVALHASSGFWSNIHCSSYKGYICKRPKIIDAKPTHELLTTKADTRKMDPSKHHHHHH
Test Method Notes: SPR, BIAcore T100; human MMR on CM5 chip, sdAb as analyte
Listing of entries alongside the reported koff.

Binder	koff, s⁻¹
NbhmMMRm6.71 (VHH, Produced from pMECS with C-terminal HA and 6xHis tag) VHH: QVQLQESGGGLVQAGGSLRLSCAASGGTFDDSVIGWFRQAPGKEREGVSCISSNDGTTHYASPVKGRFTISSDNAKNTVYLQMNSLKPEDTAVYYCAAETPSIGSPCTSASYDYWGQGTQVTVSS	0.0011
NbhmMMRm10.79 (VHH, Produced from pMECS with C-terminal HA and 6xHis tag) VHH: QVQLQESGGGLVQPGGSLKLSCAASGSIFSIKTMGWYRQAPGKQRELVAAVSSGGSTNYADSVKGRFTISRDNAKNAVYLQMNSLKPEDTAVYYCNADGVVAWDQPYDNYWGQGTQVTVSS	0.0066
NbhmMMRm3.49 (VHH, Produced from pMECS with C-terminal HA and 6xHis tag; also called NbhMMRm3.49) VHH: QVQLQESGGGLVQPGGSLRLSCAASGFSLDYYAIGWFRQAPGKEREGISCISYKGGSTTYADSVKGRFTISKDNAKNTAYLQMNSLKPEDTGIYSCAAGFVCYNYDYWGQGTQVTVSS	0.0008
NbhmMMRm24.31 (VHH, Produced from pMECS with C-terminal HA and 6xHis tag) VHH: QVQLQESGGGLVQPGGSLRLSCTATGFTLKNHHIGWLRQAPGKEREGVASINSSGGSTNYADSVQGRFTISRDNAKNTVFLQMNSLKSEDTAVYYCARLRRYYGLNLDPGSYDYWGQGTQVTVSS	0.00069
NbhmMMRm20.52 (VHH, Produced from pMECS with C-terminal HA and 6xHis tag) VHH: QVQLQESGGGLVQAGGSLRLSCAASGRIFSAYAMGWFRQAPGKEREFVAAISRSGDSTDYADSVKGRFTISRDSAKNMVYLQMNSLKPEDTALYHCAARTVSAPPSAAWGYGYWGQGTQVTVSS	0.13
NbhmMMRm22.84 (VHH, Produced from pMECS with C-terminal HA and 6xHis tag) VHH: QVQLQESGGGLVQPGGSLRLSCAASGRTFSNYVNYAMGWFRQFPGKEREFVASISWSSVTTYYADSVKGRFTISRDNAKNTVYLQMNSLKPEDTAVYYCAAHLAQYSDYAYRDPHQFGAWGQGTQVTVSS	0.0019

The measurements presented in this section are drawn from patent US20150093336A1.
